Listed compounds paired with reported pEC50
Tested on: pSer473-Akt in A2780 cells
Assay: pSer473 Akt assay to monitor PI3K pathway in A2780 cells (MSD)
Assay type: cell-based
Conditions: Homo sapiens; A2780 cells; read-out: A2780 pAKT 473 EC50
pEC50: −log10 of the molar value.

See these solved cases before continuing.
Query "CC(=O)Nc1cn2nc(-c3cnc(N)c(OC(F)F)c3)ccc2n1" yields pEC50 of > 6.00

Reported pEC50 of "CC(=O)Nc1cn2cc(-c3cnc(N)c(-c4ccccc4OC(F)(F)F)c3)ccc2n1" : > 6.00

The reported value for "CC(=O)Nc1nc2ccc(-c3cnc(N)c(C(F)(F)F)c3)cn2c1-c1ccccc1" in terms of pEC50 is > 5.00

Next:
Consider "CC(C)(C)OC(=O)NCC(=O)Nc1cn2nc(-c3cnc(N)c(C(F)(F)F)c3)ccc2n1" . Its measured pEC50 is > 6.00

----------
Tested on: A2780 cells
Assay: Viability assay in A2780 (Cell Titer Glo)
Format: cell-based, human
Conditions: Homo sapiens; A2780 cells; read-out: A2780 Cell prolif. EC50
ENDPOINT NAME: EC50

Memo: "Nc1ncc(-c2ccc3nc(NC(=O)[C@@H]4CCCN4)cn3c2)cc1C(F)(F)F" , reported EC50: < 10 µM

So, "CC(=O)Nc1cn2cc(-c3cnc(N)c(Oc4cccnc4)n3)ccc2n1" ? Its EC50 was < 1 µM

Form field EC50, entry "CC(=O)Nc1cn2cc(-c3cnc(N)c(OC4CCNCC4)n3)ccc2n1" : < 25 µM

Lab note: "CC(=O)Nc1nc2ccc(-c3cnc(N)c(Br)c3)cn2c1Br" gave EC50 of < 10 µM

Lab note: next compound to report on.
In plain terms, Nc1ncc(-c2ccc3nc(NC(=O)CCC4CCCCN4)cn3n2)cc1C(F)(F)F (centres unmarked) has a documented EC50 of < 1 µM

----------
Listed below: IC50 values for each entry.
Molecular target: UniProt:P42336
Sequence (P42336 whole entry): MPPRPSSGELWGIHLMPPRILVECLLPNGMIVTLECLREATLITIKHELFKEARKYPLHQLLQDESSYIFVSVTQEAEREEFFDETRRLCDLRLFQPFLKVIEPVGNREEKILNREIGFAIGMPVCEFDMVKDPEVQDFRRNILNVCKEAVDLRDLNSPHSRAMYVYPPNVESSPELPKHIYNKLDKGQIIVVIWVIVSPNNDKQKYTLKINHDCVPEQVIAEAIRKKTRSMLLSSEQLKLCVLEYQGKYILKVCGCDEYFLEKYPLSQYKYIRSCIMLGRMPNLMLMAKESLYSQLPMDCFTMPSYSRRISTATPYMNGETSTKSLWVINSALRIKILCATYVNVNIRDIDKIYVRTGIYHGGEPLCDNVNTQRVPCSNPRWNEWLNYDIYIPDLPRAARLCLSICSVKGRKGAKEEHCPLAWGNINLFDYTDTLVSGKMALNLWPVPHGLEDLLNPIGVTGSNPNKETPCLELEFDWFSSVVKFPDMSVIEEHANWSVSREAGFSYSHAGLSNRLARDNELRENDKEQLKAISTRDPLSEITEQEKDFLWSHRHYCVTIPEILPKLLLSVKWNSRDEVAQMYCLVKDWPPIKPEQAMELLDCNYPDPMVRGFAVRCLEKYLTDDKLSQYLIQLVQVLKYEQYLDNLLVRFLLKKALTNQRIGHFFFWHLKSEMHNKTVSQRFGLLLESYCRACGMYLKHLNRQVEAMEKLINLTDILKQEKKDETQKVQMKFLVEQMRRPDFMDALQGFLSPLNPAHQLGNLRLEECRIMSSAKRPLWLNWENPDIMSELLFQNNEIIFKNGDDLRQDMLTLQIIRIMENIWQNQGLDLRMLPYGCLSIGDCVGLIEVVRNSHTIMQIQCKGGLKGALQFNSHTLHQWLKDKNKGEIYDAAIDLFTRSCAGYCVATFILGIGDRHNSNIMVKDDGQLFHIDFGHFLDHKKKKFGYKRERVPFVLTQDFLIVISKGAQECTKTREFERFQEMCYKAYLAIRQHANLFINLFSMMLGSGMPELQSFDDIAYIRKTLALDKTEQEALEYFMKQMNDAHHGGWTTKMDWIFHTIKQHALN
Sequence (P27986 whole entry partner): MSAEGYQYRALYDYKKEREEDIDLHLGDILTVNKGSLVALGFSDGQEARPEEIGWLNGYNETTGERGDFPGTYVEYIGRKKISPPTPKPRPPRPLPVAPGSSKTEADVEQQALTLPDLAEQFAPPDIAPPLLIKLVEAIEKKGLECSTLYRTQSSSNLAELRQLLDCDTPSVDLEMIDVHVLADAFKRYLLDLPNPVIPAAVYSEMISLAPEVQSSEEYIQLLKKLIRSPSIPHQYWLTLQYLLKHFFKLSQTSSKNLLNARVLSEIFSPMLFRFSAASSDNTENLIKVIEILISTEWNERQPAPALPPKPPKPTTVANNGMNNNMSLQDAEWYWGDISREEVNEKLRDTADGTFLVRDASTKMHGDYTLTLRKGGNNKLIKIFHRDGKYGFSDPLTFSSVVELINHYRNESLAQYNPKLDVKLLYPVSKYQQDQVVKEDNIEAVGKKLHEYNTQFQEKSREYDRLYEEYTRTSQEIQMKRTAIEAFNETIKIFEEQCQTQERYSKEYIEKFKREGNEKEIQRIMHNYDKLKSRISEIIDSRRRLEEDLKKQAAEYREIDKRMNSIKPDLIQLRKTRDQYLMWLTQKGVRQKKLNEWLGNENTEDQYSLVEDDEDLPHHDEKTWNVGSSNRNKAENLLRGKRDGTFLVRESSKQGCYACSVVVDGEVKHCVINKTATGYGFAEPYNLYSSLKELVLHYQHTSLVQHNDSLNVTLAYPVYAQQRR
Assay: PI3 kinase phosphorylation assays (homogenous solution phase, one step solid phase, ATP depletion/KinaseGlo)
Type: biochemical
Conditions: read-out: PI3K Alpha IC50

For record CC(=O)Nc1cn2cc(-c3cnc(N)c(-c4ccccc4)n3)ccc2n1 [Example 113] the listed IC50 is < 1000 nM

IC50 for COCCOc1nc(-c2ccc3nc(NC(=O)COC)cn3c2)cnc1N [Example 196] is < 1000 nM

Noted for CC(=O)Nc1cn2cc(-c3cnc(N)c(-c4cccc(F)c4)c3)ccc2n1 [Example 134] : its IC50 reads < 1000 nM

Lab note: measured IC50 of CC(=O)Nc1cn2cc(-c3cnc(N)c(C(F)(F)F)c3)cc(C)c2n1 [Example 34] was > 25000 nM

get_value(item= Nc1ncc(-c2ccc3nc(NC(=O)c4ccccc4C(=O)O)cn3c2)cc1C(F)(F)F [Example 50] , readout=IC50) returns < 10000 nM

get_value(item= NC(=O)N1CCC[C@H]1C(=O)Nc1cn2cc(-c3cnc(N)c(C(F)(F)F)c3)ccc2n1 [Example 46] , readout=IC50) returns < 10000 nM

Please fill in: IC50 reported for CC(=O)Nc1cn2cc(-c3cnc(N)c(C(=O)NCCO)n3)ccc2n1 [Example 147] = < 1000 nM

For this compound ( CC(=O)Nc1cn2cc(-c3cnc(N)c(C(=O)NCCN4CCCC4)n3)ccc2n1 [Example 100] ), measured IC50 is < 1000 nM

Consider the additional compound presented here.
Given item COc1ccc(CC(=O)Nc2cn3cc(-c4cnc(N)c(C(F)(F)F)c4)ccc3n2)cc1OC [Example 51] , the value recorded as its IC50 is < 1000 nM
